The measured values listed here are drawn from patent US20250034594A1.

- Test system: endogenous genome targets (ACTB, HSP90AA1)
- assay-overview: Arrayed SSAP library screening, mKate knock-in assay (editing efficiency)
- Assay type: cell-based
- measurement-conditions: percent of mKate knock-in; average of HSP90 and ACTB; 3 days after transfection
quantity-name: Editing Efficiency (Absolute, Average, two targets)
# respond with the number and nothing more

Ask | Consider the molecule shown here: EcRecT: Escherichia coli RecT SSAP; SEQ ID NO: 171 (Tables 8, 9), SEQ ID NO: 9; positive control in Table 9 (protein) MTKQPPIAKADLQKTQGNRAPAAIKNNDVISFINQPSMKEQLAAALPRHMTAERMIRIATTEIRKVPALGNCDTMSFVSAIVQCSQLGLEPGSALGHAYLLPFGNKNEKSGKKNVQLIIGYRGMIDLARRSGQIASLSARVVREGDEFNFEFGLDEKLIHRPGENEDAPVTHVYAVARLKDGGTQFEVMTRKQIELVRSQSKAGNNGPWVTHWEEMAKKTAIRRLFKYLPVSIEIQRAVSMDEKEPLTIDPADSSVLTGEYSVIDNSEE What is its recorded Editing Efficiency (Absolute, Average, two targets)?
Reply | 9.4225
